# Target Under Test: Rat Striatal Nicotinic Receptors ([^3H]NIC binding sites; α4β2) (Rattus norvegicus, UniProt P09483+P12390)
# Construct: Whole brain, excluding cortex and cerebellum, was homogenized in 20 vol of ice-cold buffer; from tissue; host or cells: rat brain membranes (whole brain excluding cortex and cerebellum)
# Sequence (P09483 31-630): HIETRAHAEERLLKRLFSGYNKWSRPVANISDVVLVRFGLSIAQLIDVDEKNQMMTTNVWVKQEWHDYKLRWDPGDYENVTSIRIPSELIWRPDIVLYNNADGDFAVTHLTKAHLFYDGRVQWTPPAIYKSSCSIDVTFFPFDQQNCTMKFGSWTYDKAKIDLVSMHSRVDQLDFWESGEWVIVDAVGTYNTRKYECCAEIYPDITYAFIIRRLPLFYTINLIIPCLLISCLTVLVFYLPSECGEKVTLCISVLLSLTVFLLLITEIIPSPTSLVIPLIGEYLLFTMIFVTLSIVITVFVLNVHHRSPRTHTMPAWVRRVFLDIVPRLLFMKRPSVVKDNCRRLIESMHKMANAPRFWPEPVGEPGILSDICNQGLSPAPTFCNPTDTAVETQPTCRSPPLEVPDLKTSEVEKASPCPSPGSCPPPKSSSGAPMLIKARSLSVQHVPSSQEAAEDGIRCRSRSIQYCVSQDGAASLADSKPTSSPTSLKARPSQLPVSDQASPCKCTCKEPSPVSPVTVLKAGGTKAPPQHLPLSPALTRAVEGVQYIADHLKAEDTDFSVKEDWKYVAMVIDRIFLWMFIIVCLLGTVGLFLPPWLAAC
# Sequence (P12390 25-500): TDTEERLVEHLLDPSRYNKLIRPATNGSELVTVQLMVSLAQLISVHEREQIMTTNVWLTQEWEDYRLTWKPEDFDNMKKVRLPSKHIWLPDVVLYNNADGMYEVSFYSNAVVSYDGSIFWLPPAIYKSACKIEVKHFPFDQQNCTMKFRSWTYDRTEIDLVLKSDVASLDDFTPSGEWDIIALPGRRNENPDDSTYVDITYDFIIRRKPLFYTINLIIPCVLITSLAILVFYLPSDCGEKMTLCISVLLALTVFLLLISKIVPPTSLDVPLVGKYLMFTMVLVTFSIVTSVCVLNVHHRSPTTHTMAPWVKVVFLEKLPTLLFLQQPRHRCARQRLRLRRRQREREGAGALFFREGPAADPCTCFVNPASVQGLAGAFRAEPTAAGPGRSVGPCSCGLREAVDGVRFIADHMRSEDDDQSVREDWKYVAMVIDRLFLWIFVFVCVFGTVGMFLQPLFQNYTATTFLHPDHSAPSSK
# Assay Text: Inhibition of [^3H]NIC binding
# Reported Conditions: 1 h; 100 nM analog; 3 nM [^3H]NIC; nonspecific 10 μM cytisine; rat brain membranes
Readout Type: inhibition at 0.1 µM (%)

# Smiles Record, Result Number
rows = [
    ("Cc1cc[n+](CCCCc2ccc(CCCC[n+]3ccc(C)c(C)c3)cc2)cc1C", 0),
    ("Cc1cccc[n+]1CCOCCOCCOCC[n+]1ccccc1C", 8.5),
    ("CN1CCC[C@H]1c1ccc[n+](CCOCCOCCOCC[n+]2cccc([C@@H]3CCCN3C)c2)c1", 7.2),
    ("C(#Cc1cccc(C#CCCC[n+]2cccc3ccccc32)c1)CCC[n+]1cccc2ccccc21", 16),
    ("Cc1cc[n+](CCCCc2ccc(CCCC[n+]3ccc(C)cc3C)cc2)c(C)c1", 0),
]
